Test system: MALME-3M melanoma
assay_remarks: NCI tumour cell line growth inhibition, 48 h
observed_property: TGI

compound: CN(CC(=O)Nc1ccccc1C(=O)O)c1ccccc1
test_target: MALME-3M melanoma
result_value: > 100 µM

compound: O=C1c2ccccc2-c2c1c1c(O)cccc1n2Cc1ccccc1
test_target: MALME-3M melanoma
result_value: 8.65 µM

compound: CN(C)[C@@H]1C(=O)C(C(=O)NCc2nc3[nH]cnc(=S)c3[nH]2)=C(O)[C@@]2(O)C(=O)C3=C(O)c4c(O)cccc4[C@@](C)(O)[C@H]3C[C@@H]12
test_target: MALME-3M melanoma
result_value: > 100 µM

compound: CCCCCCCCCCCCCCCCOP(=O)([O-])OCC[N+](C)(C)C1CC(C)(C)N(O)C(C)(C)C1
test_target: MALME-3M melanoma
result_value: > 100 µM

compound: CC(C)CCCC(C)C1CCC2C3CC([N+](=O)[O-])=C4CC(O)CCC4(C)C3CCC12C (configuration not stated)
test_target: MALME-3M melanoma
result_value: 39.2 µM

compound: ON1CCc2c([nH]c3ccccc23)C1c1ccc(Cl)cc1 (configuration not stated)
test_target: MALME-3M melanoma
result_value: 77.6 µM

compound: COc1ccc(Cn2c(Br)c3c(c2-c2cc(OC)c(OC)c(OC)c2)CCc2sc(N)nc2-3)cc1
test_target: MALME-3M melanoma
result_value: 28.5 µM

compound: Cc1csc(=Nc2ccccc2)n1CCC(O)(P(=O)(O)O)P(=O)(O)O
test_target: MALME-3M melanoma
result_value: > 100 µM

compound: CCN(CC)/[N+]([O-])=N/OS(=O)(=O)N(C)C
test_target: MALME-3M melanoma
result_value: > 100 µM

compound: CN1CCN(C(=O)/C=C/c2ccc([N+](=O)[O-])o2)CC1
test_target: MALME-3M melanoma
result_value: 14.3 µM

compound: CC(=O)O[C@H]([C@H](OC(C)=O)[C@H](C)OC(C)=O)[C@@H](/C=C/[C@H]1CC=CC(=O)O1)OC(C)=O
test_target: MALME-3M melanoma
result_value: > 100 µM

compound: OC[C@H]1C[C@](O)(c2ccc(F)cc2)[C@@H](c2ccc(F)cc2)O1
test_target: MALME-3M melanoma
result_value: > 100 µM

compound: C(=NC12CC3CC(CC(C3)C1)C2)C1CCCCC1
test_target: MALME-3M melanoma
result_value: > 100 µM

compound: CCOC(=O)c1c(C)n(-c2ccc(C)cc2)c(=O)c2ccccc2c(=O)c2c(=O)ccc(=O)c1=2
test_target: MALME-3M melanoma
result_value: 32.5 µM

compound: CC1OC(OC2C(OC(=O)[C@]34CCC(C)(C)C[C@H]3C3=CC[C@@H]5[C@@]6(C)CC[C@H](OC7OC(CO)C(O)C(O)C7OC7OC(CO)C(O)C(O)C7O)C(C)(C)[C@@H]6CC[C@@]5(C)[C@]3(C)CC4)OCC(O)C2O)C(O)C(O)C1OC1OCC(O)C(O)C1O (some centres not stated)
test_target: MALME-3M melanoma
result_value: 12.6 µM

compound: O[C@@H]1[C@H](OC2c3ccccc3-c3ccccc32)[C@H](OCc2ccccc2)[C@@H]2OC[C@H]1O2
test_target: MALME-3M melanoma
result_value: > 100 µM

compound: CCOc1ccc(OP2(=O)NC(=O)C=C(C)N2)cc1 (configuration not stated)
test_target: MALME-3M melanoma
result_value: > 100 µM

compound: O=C1c2ccccc2N1C(=O)c1ccccc1[N+](=O)[O-]
test_target: MALME-3M melanoma
result_value: > 100 µM

compound: COC(=O)C1CC2CC1C1C2SC(F)(F)C1(F)F (configuration not stated)
test_target: MALME-3M melanoma
result_value: > 100 µM

compound: N#CC1=C(N)Oc2c(ccc3ccccc23)C1c1cc2ccccc2n2nnnc12 (configuration not stated)
test_target: MALME-3M melanoma
result_value: > 100 µM

compound: O=S1(=O)C(=C(c2ccccc2)c2ccccc2)S(=O)(=O)c2ccccc21
test_target: MALME-3M melanoma
result_value: > 100 µM

compound: CC(=O)Nc1ccc2c(c1)C(=O)c1ccccc1-2
test_target: MALME-3M melanoma
result_value: > 100 µM

compound: Nc1nccc(NCC2(CO)CC(CCc3ccccc3)C2)n1 (configuration not stated)
test_target: MALME-3M melanoma
result_value: 29.1 µM

compound: COC(=O)C(C)NP(=O)(OCc1cccc(Cn2cnc3c(N)ncnc32)c1)Oc1ccccc1 (configuration not stated)
test_target: MALME-3M melanoma
result_value: > 100 µM

compound: COc1cc(CCN)c(OC)c(OC)c1
test_target: MALME-3M melanoma
result_value: > 100 µM

compound: O=C1CSC(c2cc3cc(Br)ccc3nc2Cl)N1c1ccc(Cl)cc1 (configuration not stated)
test_target: MALME-3M melanoma
result_value: 75.8 µM

compound: CC1=N/C(=C\c2ccc(C)cc2)C(=O)O1
test_target: MALME-3M melanoma
result_value: > 100 µM
